Experiment: xn = mol fraction of the nth substance listed
Details: 298.15 K; 101 kPa; Liquid; x1 = 0.45
Answer each item with its documented mass density.
Report only the number, with the unit kg/m3 understood.

IN: What does the record list as mass density for CCOC(=O)Cc1ccccc1 [ethyl phenylacetate] + CCO ?
OUT: 953.61

IN: Thanks! And CCOC(=O)c1ccccc1 [ethyl benzoate] + CCO ?
OUT: 958.3

IN: Another compound to check: CCCC(=O)OCCC(C)C [3-methylbutyl butanoate] + CCO
OUT: 837.02

IN: CCCCCC(=O)OCC [ethyl hexanoate] + CCO ?
OUT: 840.82

IN: Can you check CCCCCCCC(=O)OCC [ethyl octanoate] + CCO next?
OUT: 840.77

====

Test: xn = mol fraction of the nth substance listed
Conditions: 298.15 K; 101 kPa; Liquid; x1 = 0.55
MEASUREMENT_LABEL: mass density (kg/m3)
State just the number; it will be interpreted in kg/m3.

IN: What does the record list as mass density for CCOC(=O)c1ccccc1 [ethyl benzoate] + CCO ?
OUT: 978.97

IN: For CCCCCCCC(=O)OCC [ethyl octanoate] + CCO then?
OUT: 846.23

IN: Another molecule: CCOC(=O)Cc1ccccc1 [ethyl phenylacetate] + CCO
OUT: 972.24

IN: Next: CCCCCC(=O)OCC [ethyl hexanoate] + CCO
OUT: 847.12

IN: Next molecule up: CCCC(=O)OCCC(C)C [3-methylbutyl butanoate] + CCO
OUT: 842.46

====

Assay: xn = mol fraction of the nth substance listed
Conditions: 288.15 K; 100.5 kPa; Liquid; x1 = 0.75
I'd appreciate it if you could supply viscosity values for the items below.
Form entry: value (mPa·s) — number only.

IN: State the recorded viscosity for this entry: CCCCCCCC(=O)OCC [ethyl octanoate] + CCO
OUT: 1.568

IN: Moving on to CCCC(=O)OCCC(C)C [3-methylbutyl butanoate] + CCO
OUT: 1.237

IN: Then what about the compound CC(=O)OCCC(C)C [3-methylbutyl ethanoate] + CCO ?
OUT: 0.912

IN: Try this compound next: CCOC(=O)c1ccccc1 [ethyl benzoate] + CCO
OUT: 2.028

IN: Entry CCCCCC(=O)OCC [ethyl hexanoate] + CCO please
OUT: 1.054

IN: Same read-out for CCOC(=O)Cc1ccccc1 [ethyl phenylacetate] + CCO ?
OUT: 2.446

====

Consider the following molecules; for each one, report its viscosity.
Conditions: 308.15 K; 100.5 kPa; Liquid
Numbers after ± are expanded uncertainties.
Answer format reminder: number followed by unit.

IN: Recorded viscosity for CCOC(=O)c1ccccc1 [ethyl benzoate] , please?
OUT: 1.624 ± 0.021 mPa·s

IN: Next record, please: CCCC(=O)OCCC(C)C [3-methylbutyl butanoate]
OUT: 0.952 ± 0.016 mPa·s

IN: Another molecule: CCO [ethanol]
OUT: 0.921 ± 0.016 mPa·s

IN: Please do the same for CCCCCC(=O)OCC [ethyl hexanoate] as well.
OUT: 0.814 ± 0.015 mPa·s

IN: Now the molecule CCOC(=O)Cc1ccccc1 [ethyl phenylacetate]
OUT: 1.948 ± 0.024 mPa·s

IN: Another molecule to check: CC(=O)OCCC(C)C [3-methylbutyl ethanoate]
OUT: 0.704 ± 0.015 mPa·s

IN: Can you check CCCCCCCC(=O)OCC [ethyl octanoate] next?
OUT: 1.193 ± 0.018 mPa·s
